Target Under Test: OXA-1 (Escherichia coli, UniProt P13661)
Construct: made in house; host or cells: E. coli expression vector
Sequence (P13661 26-276): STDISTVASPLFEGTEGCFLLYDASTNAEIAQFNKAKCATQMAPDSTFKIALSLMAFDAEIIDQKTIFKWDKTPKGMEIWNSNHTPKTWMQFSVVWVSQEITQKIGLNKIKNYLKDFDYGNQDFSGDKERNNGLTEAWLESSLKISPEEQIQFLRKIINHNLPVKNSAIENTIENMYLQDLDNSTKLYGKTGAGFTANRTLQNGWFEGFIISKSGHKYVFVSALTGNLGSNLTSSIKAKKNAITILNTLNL
Assay Summary: β-lactamase inhibitory activity, IC50 (nitrocefin hydrolysis)
Format: biochemical
pIC50: −log10 of the molar value.
Everything with pIC50 lower than 7 is f; everything else, including exactly 7, is t.

Would you please look over these solved cases?
Compound | Assigned Category
NC(=O)CON=C1C[C@@H](C(N)=O)N2C[C@@H]1N(OS(=O)(=O)[O-])C2=O.[Na+] (mixture of isomers) [Example 3, sulfate] | t
CNC(=O)CON=C1C[C@@H](C(N)=O)N2C[C@@H]1N(OS(=O)(=O)[O-])C2=O.[Na+] (mixture of isomers) [Example 2, sulfate] | t
NC[C@@H]1CC(=NOCC(N)=O)[C@@H]2CN1C(=O)N2OS(=O)(=O)O (mixture of isomers) [Example 5] | f

Moving on to another compound below.
QUERY: Decide: is the reported value of pIC50 for NC[C@@H]1CC(=O)[C@@H]2CN1C(=O)N2OS(=O)(=O)O [Example 6] equal to or greater than 7?
RESULT: f

Each recorded value in this set is attributed to patent US10570131B2.
